- Experiment description: Cmax in Beagle dog at 2 mg/kg, po by LC/MS/MS analysis
- Type: ADME, organism-based, Canis lupus familiaris
- Set-up: dose 2 mg/kg, route oral
- Assay setup: in vivo
Consider the following compounds and their measured Cmax readings.
Output spec: scalar in nM, unitless text.

Problem: Data request, read-out Cmax, for C[C@@H](O)c1nc2cnc3[nH]ccc3c2n1[C@H]1CC[C@H](C#N)CC1
Solution: 2100

---

Consider the following compounds and their measured CLhep predicted readings.
- Experiment description: Metabolic stability in dog hepatocytes assessed as hepatic clearance
- Type: ADME, cell-based, Canis lupus familiaris, Liver, Hepatocyte
Output spec: scalar in mL/min/kg, unitless text.

Answered examples (5):
C[C@@H](O)c1nc2cnc3[nH]ccc3c2n1[C@H]1CC[C@H](C#N)CC1 ... 3
C[C@@H](O)c1nc2cnc3[nH]ccc3c2n1[C@H]1CC[C@H](CC#N)CC1 ... 12
C[C@@H](O)c1nc2cnc3[nH]ccc3c2n1[C@H]1CC[C@H](CCC#N)CC1 ... 11
C[C@@H](O)c1nc2cnc3[nH]ccc3c2n1[C@H]1CC[C@H](NCC(F)(F)F)CC1 ... 2.3
C[C@@H](O)c1nc2cnc3[nH]ccc3c2n1[C@H]1CC[C@@H](NCC(F)(F)F)C1 ... 9.8

Turning to the following compound.
Problem: Data request, read-out CLhep predicted, for C[C@@H](O)c1nc2cnc3[nH]ccc3c2n1[C@H]1CCCOC1
Solution: 4.9
